system: transactivating tegument protein VP16 (Human herpesvirus 1); assay: VP16 transactivation reporter inhibitors, counter-screen for SRC2 inhibitor project, cell-based, luminescence, single concentration (AID 652007); details: cell-based VP16 transactivation luciferase reporter, at 8.9 µM
Calls of active or inactive are those of the source. No stated cut-off is given here; in the data, active means inhibition above about 36%; inactive means the rest.
Choose one outcome from this list and give only that: active, inactive

Query :: Called result for Cc1ccc(CS(=O)(=O)c2ncc(Cl)c(C(=O)Nc3nnc(C)s3)n2)cc1
Result :: inactive

Query :: Called result for COCC(C)n1c(C)cc(C(=O)COC(=O)c2cccn2C)c1C (stereo unspecified)
Result :: active

Query :: Called result for CCc1ccc(-c2nc(CS(=O)CC(=O)NCc3ccco3)c(C)o2)cc1 (stereo unspecified)
Result :: inactive

Query :: Called result for C=C1C(=O)C23C(O)C1CCC2C12COC3(O)C(O)C1C(C)(C)CCC2O (stereo unspecified)
Result :: inactive

Query :: Called result for C=C1C(=O)O[C@H]2C[C@H]1[C@@H](OC(C)=O)C/C(C)=C/CC/C(C)=C\CC[C@]2(C)O
Result :: inactive

Query :: Called result for c1csc(C2=Nn3c(nnc3-c3ccncc3)SC2)c1
Result :: inactive

Query :: Called result for c1ccc(CCNc2ncnc3scc(C4COc5ccccc5O4)c23)cc1 (stereo unspecified)
Result :: inactive

Query :: Called result for O=C(CCc1nnc(-c2ccc(-c3ccccc3)cc2)o1)NCCc1ccccn1
Result :: inactive

Query :: Called result for Cc1ccc(C(=O)O/N=C(\N)c2ccccn2)cc1
Result :: inactive

Query :: Called result for Cc1cc(NC(=O)Cc2ccccc2)c2ccccc2n1
Result :: inactive

Query :: Called result for CCOc1ccc(-c2cc(CCCC(=O)Nc3cccc(OC)c3)no2)cc1
Result :: active
